Just for reference, ChEMBL document CHEMBL3784938 is where these values come from.

System: RAW264.7
Experiment: Antiosteoclast activity in mouse RAW264.7 cells assessed as inhibition of RANKL-induced osteoclast differentiation at 20 uM after 5 days by TRAP assay
Format: functional
Details: RAW264.7, 120 h
inhibition at 20 µM reference
API: value field is a number in %; no unit string.

Reference set, count: 4
INSERT INTO assay_data (smiles_string, assayed_target, value_kind, observed_result) VALUES
  ('CC1(C)CC[C@]2(C(=O)NCc3ccccc3)CC[C@]3(C)C(=CC[C@@H]4[C@@]5(C)Cc6cnoc6C(C)(C)[C@@H]5CC[C@]43C)[C@@H]2C1', 'RAW264.7', 'inhibition at 20 µM', 69.3),
  ('CC1(C)CC[C@]2(C(=O)NCCCN3CCOCC3)CC[C@]3(C)C(=CC[C@@H]4[C@@]5(C)Cc6cn(S(=O)(=O)c7ccc(Cl)cc7)nc6C(C)(C)[C@@H]5CC[C@]43C)[C@@H]2C1', 'RAW264.7', 'inhibition at 20 µM', 56.1),
  ('Cc1noc(C)c1S(=O)(=O)n1cc2c(n1)C(C)(C)[C@@H]1CC[C@]3(C)[C@H](CC=C4[C@@H]5CC(C)(C)CC[C@]5(C(=O)NCCCN5CCOCC5)CC[C@]43C)[C@@]1(C)C2', 'RAW264.7', 'inhibition at 20 µM', 100),
  ('Cn1cnc(S(=O)(=O)n2cc3c(n2)C(C)(C)[C@@H]2CC[C@]4(C)[C@H](CC=C5[C@@H]6CC(C)(C)CC[C@]6(C(=O)NCCN6CCCCC6)CC[C@]54C)[C@@]2(C)C3)c1', 'RAW264.7', 'inhibition at 20 µM', 100);

Requested read-out: inhibition at 20 µM. Entry: `CC1(C)CC[C@]2(C(=O)NCCCN3CCOCC3)CC[C@]3(C)C(=CC[C@@H]4[C@@]5(C)Cc6c[nH]nc6C(C)(C)[C@@H]5CC[C@]43C)[C@@H]2C1`
100

Requested read-out: inhibition at 20 µM. Entry: `CC1(C)CC[C@]2(C(=O)NC3CCN(Cc4ccccc4)CC3)CC[C@]3(C)C(=CC[C@@H]4[C@@]5(C)Cc6c[nH]nc6C(C)(C)[C@@H]5CC[C@]43C)[C@@H]2C1`
100

Requested read-out: inhibition at 20 µM. Entry: `COc1ccc(S(=O)(=O)n2cc3c(n2)C(C)(C)[C@@H]2CC[C@]4(C)[C@H](CC=C5[C@@H]6CC(C)(C)CC[C@]6(C(=O)NCCN6CCCCC6)CC[C@]54C)[C@@]2(C)C3)cc1OC`
100

###

inhibition at 20 µM reference
Tested on: RAW264.7
Test: Antiosteoclast activity in mouse RAW264.7 cells assessed as inhibition of RANKL-induced osteoclast differentiation at 20 uM after 5 days by TRAP assay
Assay type: functional
Conditions: RAW264.7, 120 h
API: value field is a number in %; no unit string.

Reference set, count: 2
INSERT INTO results (smiles_string, value_kind, observed_result) VALUES
  ('CC1(C)CC[C@]2(C(=O)NC3CCN(Cc4ccccc4)CC3)CC[C@]3(C)C(=CC[C@@H]4[C@@]5(C)Cc6cn(S(=O)(=O)c7ccc(C(C)(C)C)cc7)nc6C(C)(C)[C@@H]5CC[C@]43C)[C@@H]2C1', 'inhibition at 20 µM', 65.6),
  ('CC1(C)CC[C@]2(C(=O)NCCN3CCCCC3)CC[C@]3(C)C(=CC[C@@H]4[C@@]5(C)Cc6cn(S(=O)(=O)c7ccc(C(C)(C)C)cc7)nc6C(C)(C)[C@@H]5CC[C@]43C)[C@@H]2C1', 'inhibition at 20 µM', 89.8);

Now examine the next entry.
Requested read-out: inhibition at 20 µM. Entry: `CC1(C)CC[C@]2(C(=O)NC3CCN(Cc4ccccc4)CC3)CC[C@]3(C)C(=CC[C@@H]4[C@@]5(C)Cc6cn(S(=O)(=O)c7ccc(Br)cc7)nc6C(C)(C)[C@@H]5CC[C@]43C)[C@@H]2C1`
19.6
